- Test system: NCI-H522 lung
- PROTOCOL DETAILS: NCI-60 one-dose screen, 48 h (100 = growth as untreated, 0 = no growth, -100 = all killed)
- PARTICULARS: 10 µM unless noted
The panel holds about 83,000 compounds, 20% with a hit somewhere; the sample as a whole holds those more often. The source made the active and inactive calls. How the source made its calls: active means growth percent below 10; inactive means the rest.
MEASUREMENT LABEL: growth

Below: 9 compounds and their reported growth.
{"COMPOUND": "Cc1c(C)c2c(c(C)c1NC(=O)CCCCCCC(=O)O)CCC(C)(CCCC(C)CCCC(C)CCCC(C)C)O2 (stereo not given)", "growth": "52% (inactive)"}
{"COMPOUND": "Cc1csc(Nc2nc(-c3cccc(Br)c3)nc(C(Cl)(Cl)Cl)n2)n1", "growth": "97.1% (inactive)"}
{"COMPOUND": "COC(=O)C(Cc1ccccc1)n1cc(COc2nc(Cl)nc(Nc3ccc(Cl)cc3)n2)nn1 (stereo not given)", "growth": "88.2% (inactive)"}
{"COMPOUND": "Cc1cc2nc3c4cc(O)ccc4n(CCN(C)C)c3nc2cc1C", "growth": "-13.5% (active)"}
{"COMPOUND": "COc1cc(-c2nc(-c3ccccc3)c(-c3ccccc3)[nH]2)cc(OC)c1O", "growth": "-23% (active)"}
{"COMPOUND": "COc1cc2c3c(c4c5ccccc5[nH]c4c2c(OC)c1OC)C(=O)N(O)C3=O", "growth": "45.7% (inactive)"}
{"COMPOUND": "COC(=O)c1cc(=O)nc(N/N=C/c2ccc(C)cc2)s1", "growth": "91.9% (inactive)"}
{"COMPOUND": "COc1ccc(-c2nc3ncccn3c2-c2nc3ccc(Br)cc3[nH]2)cc1", "growth": "69.7% (inactive)"}
{"COMPOUND": "O=C1Nc2ccccc2/C1=C/c1cn(CCCn2c3ccccc3c(=O)c3ccccc32)c2ccccc12", "growth": "77.5% (inactive)"}

Qu. Reported growth for NCI-H522 lung, given COC1=C(Br)C(=O)C(OC)=C(Br)C1=O ?
Ans. 86.3% (inactive)
